// provenance: patent US9321776B2

assayed_target: PI3Kβ (Homo sapiens, UniProt P42338)
Construct: purchased Millipore Ltd (Billerica, Mass.)
Sequence (P42338 whole entry): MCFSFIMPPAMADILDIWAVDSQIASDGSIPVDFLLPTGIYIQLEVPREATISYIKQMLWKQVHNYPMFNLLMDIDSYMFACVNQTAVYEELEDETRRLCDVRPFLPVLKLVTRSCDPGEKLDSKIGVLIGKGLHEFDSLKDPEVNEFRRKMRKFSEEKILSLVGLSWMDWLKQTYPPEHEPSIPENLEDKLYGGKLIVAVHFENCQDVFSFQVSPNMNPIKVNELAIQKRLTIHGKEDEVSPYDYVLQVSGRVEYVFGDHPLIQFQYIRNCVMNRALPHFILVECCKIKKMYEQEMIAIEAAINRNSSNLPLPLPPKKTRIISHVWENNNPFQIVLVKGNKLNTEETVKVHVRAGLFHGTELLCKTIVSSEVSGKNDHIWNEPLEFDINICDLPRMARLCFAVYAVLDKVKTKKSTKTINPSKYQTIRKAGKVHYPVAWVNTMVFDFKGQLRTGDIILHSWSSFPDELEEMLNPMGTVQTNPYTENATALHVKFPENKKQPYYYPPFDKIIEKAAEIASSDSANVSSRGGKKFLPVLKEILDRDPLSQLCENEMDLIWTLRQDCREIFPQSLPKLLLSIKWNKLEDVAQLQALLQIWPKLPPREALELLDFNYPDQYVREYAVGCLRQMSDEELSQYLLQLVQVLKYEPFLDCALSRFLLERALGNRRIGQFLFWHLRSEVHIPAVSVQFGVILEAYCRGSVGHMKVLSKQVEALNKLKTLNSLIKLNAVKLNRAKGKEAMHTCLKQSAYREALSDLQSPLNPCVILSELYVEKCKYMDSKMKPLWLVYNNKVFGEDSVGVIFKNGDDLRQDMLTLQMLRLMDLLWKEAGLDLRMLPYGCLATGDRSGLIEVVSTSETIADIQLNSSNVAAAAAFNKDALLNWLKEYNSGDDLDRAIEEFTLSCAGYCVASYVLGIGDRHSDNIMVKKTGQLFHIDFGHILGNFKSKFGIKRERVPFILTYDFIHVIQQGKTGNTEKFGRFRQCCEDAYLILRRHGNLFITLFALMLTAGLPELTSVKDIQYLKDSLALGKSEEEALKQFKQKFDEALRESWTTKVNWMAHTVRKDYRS
assay_comment: PI3K enzyme inhibitory activity in the cell free assay (ADP-Glo Kinase Assay)
Type: biochemical
protocol_conditions: human recombinant PI3Kβ, ATP 100 μM; read-out: PI3K beta inhibition
Where a name gives a salt, the structure may show the parent alone.

| compound | IC50 |
| --- | --- |
| CC(c1oc(=O)c2ccccc2c1C1=CCN(C(=O)C2CN(C)C2)CC1)n1nc(-c2cc(O)cc(F)c2)c2c(N)ncnc21 (stereo not drawn) [Example 151, formate] | 10 to 1000 nM |
| Nc1ncnc2c1c(-c1cc(O)cc(F)c1)nn2Cc1oc(=O)c2ccccc2c1-c1ccccc1 [Example 35] | > 1000 nM |
| CC(c1oc(=O)c2ccccc2c1C1=CCCN(C2CNC2)C1)n1nc(-c2cc(O)cc(F)c2)c2c(N)ncnc21 (stereo not drawn) [Example 173, dihydrochloride] | 10 to 1000 nM |
| CC(c1oc(=O)c2ccccc2c1CN1CCOCC1)n1nc(-c2cc(O)cc(F)c2)c2c(N)ncnc21 (stereo not drawn) [Example 130] | 10 to 1000 nM |
| CC(c1oc(=O)c2ccccc2c1C1=CCN(C(=O)CCCN(C)C)CC1)n1nc(-c2cc(O)cc(F)c2)c2c(N)ncnc21 (stereo not drawn) [Example 146, formate] | 10 to 1000 nM |
| CC(c1oc(=O)c2ccccc2c1-c1ccccc1)n1nc(C(F)(F)F)c2c(N)ncnc21 (stereo not drawn) [Example 104] | > 1000 nM |
| CC(c1oc(=O)c2ccccc2c1-c1ccc(CN2CCNCC2)cc1)n1nc(-c2cc(O)cc(F)c2)c2c(N)ncnc21 (stereo not drawn) [Example 125, dihydrochloride] | > 1000 nM |
| CC(c1oc(=O)c2ccccc2c1-c1cnc(N)s1)n1nc(-c2cc(O)cc(F)c2)c2c(N)ncnc21 (stereo not drawn) [Example 121, hydrochloride] | 10 to 1000 nM |
| CC(c1oc(=O)c2ccccc2c1-c1ccccc1)n1nc(I)c2c(N)ncnc21 (stereo not drawn) [Int D2] | 10 to 1000 nM |
| Cc1cccc(-c2c(C(C)n3nc(I)c4c(N)ncnc43)oc(=O)c3ccccc23)c1 (stereo not drawn) [Int D3] | > 1000 nM |
| CC(c1oc(=O)c2ccccc2c1-c1ccccn1)n1nc(-c2cc(O)cc(F)c2)c2c(N)ncnc21 (stereo not drawn) [Example 170, hydrochloride] | 10 to 1000 nM |
| CC(c1oc(=O)c2ccccc2c1C1=CCN(C)CC1)n1nc(-c2cc(O)cc(C(F)(F)F)c2)c2c(N)ncnc21 (stereo not drawn) [Example 155, formate] | 10 to 1000 nM |
| CC(c1oc(=O)c2ccccc2c1C1=CCN(C)CC1)n1nc(-c2cncc(O)c2)c2c(N)ncnc21 (stereo not drawn) [Example 175, hydrochloride] | < 10 nM |
| Nc1ncnc2c1c(-c1ccc3cn[nH]c3c1)nn2Cc1oc(=O)c2ccccc2c1-c1ccccc1 [Example 38] | > 1000 nM |
| CC(c1oc(=O)c2ccccc2c1-c1ccc(CCCN(C)C)s1)n1nc(-c2cc(O)cc(F)c2)c2c(N)ncnc21 (stereo not drawn) [Example 136, Formate] | 10 to 1000 nM |
| CC(c1oc(=O)c2ccccc2c1-c1ccc(CN2CCCCC2)s1)n1nc(-c2cc(O)cc(F)c2)c2c(N)ncnc21 (stereo not drawn) [Example 68, hydrochloride] | 10 to 1000 nM |
| CC(C)N1CCC=C(c2c(C(C)n3nc(-c4cc(O)cc(F)c4)c4c(N)ncnc43)oc(=O)c3ccccc23)C1 (stereo not drawn) [Example 174, hydrochloride] | 10 to 1000 nM |
| CC(c1oc(=O)c2ccccc2c1C1=CCN(C2CNC2)CC1)n1nc(-c2cc(O)cc(F)c2)c2c(N)ncnc21 (stereo not drawn) [Example 156, dihydrochloride] | 10 to 1000 nM |
| CC(c1oc(=O)c2ccccc2c1-c1cccc(CCCN(C)C)c1)n1nc(-c2cc(O)cc(F)c2)c2c(N)ncnc21 (stereo not drawn) [Example 137, Formic Acid] | 10 to 1000 nM |
| CC(c1oc(=O)c2ccccc2c1C1=CCN(C2CN(CC3CC3)C2)CC1)n1nc(-c2cc(O)cc(F)c2)c2c(N)ncnc21 (stereo not drawn) [Example 157, dihydrochloride] | 10 to 1000 nM |
| CC(c1oc(=O)c2ccccc2c1-c1ccc(CN2CCN(C)CC2)s1)n1nc(-c2cc(O)cc(F)c2)c2c(N)ncnc21 (stereo not drawn) [Example 135, dihydrochloride] | 10 to 1000 nM |
